Origin of values: PubChem BioAssay AID1159580

assay: chemical genetic growth profiling, strain panel (AID 1159580);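 note: tested at 20 µM; growth read once vehicle control cultures reached saturation at 30 °C; 1 = growth at the plate median or of vehicle wells; lower values mean less growth of the strain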; conditions: S. cerevisiae deletion strains, growth OD, locus YPL078C, strain atp4, stronger effect = lower value
Screen size: about 5,500 compounds; about 2,000 (36%) were called active. Inconclusive results (about 18%) are left out. The list shows a part of the results.
Mark each entry Yes if its normalized growth sits below 1, and No for all others.

Ask: Given CNC(C)C(O)c1ccccc1 (stereo not drawn) , is recorded normalized growth strictly lower than 1?
Reply: No

Ask: Given `CC1(C)O[C@H]2CC(=O)OC[C@]23[C@H]2CC[C@@]4(C)[C@H](c5ccoc5)OC(=O)[C@H]5O[C@]54[C@]2(C)C(=O)C[C@@H]13` , is recorded normalized growth strictly lower than 1?
Reply: Yes

Ask: Given `CC/C(=C(/CC)c1ccc(O)cc1)c1ccc(O)cc1` , is recorded normalized growth strictly lower than 1?
Reply: Yes

Ask: Given CC(C)N(CCC(C(N)=O)(c1ccccc1)c1ccccn1)C(C)C (stereo not drawn) , is recorded normalized growth strictly lower than 1?
Reply: Yes

Ask: Given CN[C@@H]1C(O)[C@@H](O[C@@H]2[C@@H](O)[C@H](O[C@H]3OC(CN)=CC[C@H]3N)[C@@H](N)C[C@H]2N)OC[C@]1(C)O (stereo partly drawn) , is recorded normalized growth strictly lower than 1?
Reply: No

Ask: Given O=C1C=C2C(=CCOC2O)O1 (stereo not drawn) , is recorded normalized growth strictly lower than 1?
Reply: Yes

Ask: Given CC1(C)C2CC(=O)[C@]3(C)C(CC[C@@]4(C)[C@H](c5ccoc5)OC(=O)C5OC543)[C@@]2(C)[C@@H](O)C[C@H]1O (stereo partly drawn) , is recorded normalized growth strictly lower than 1?
Reply: No

Ask: Given C=CC1C2=CCOC(=O)C2=COC1OC1OC(CO)C(O)C(O)C1O (stereo not drawn) , is recorded normalized growth strictly lower than 1?
Reply: No

Ask: Given CC(CC(C(N)=O)(c1ccccc1)c1ccccc1)N(C)C (stereo not drawn) , is recorded normalized growth strictly lower than 1?
Reply: Yes

====

experiment: chemical genetic growth profiling, strain panel (AID 1159580);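 note: tested at 20 µM; growth read once vehicle control cultures reached saturation at 30 °C; 1 = growth at the plate median or of vehicle wells; lower values mean less growth of the strain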; conditions: S. cerevisiae deletion strains, growth OD, locus YER155C, strain BEM2, stronger effect = lower value
About 2,000 (36%) of roughly 5,500 compounds were called active. Not shown: some 18% with an inconclusive outcome. The list shows a part of the results.
Please provide measured normalized growth for the entries that follow.
Form rule: numeric answer, no unit written next to it.

Ask: Which measured normalized growth value corresponds to CC1CCC2(OC1)OC1CC3C4CC[C@H]5C[C@@H](O)CC[C@]5(C)C4CC(=O)[C@]3(C)C1C2C (some centres undefined) ?
Reply: 1.01

Ask: Which measured normalized growth value corresponds to CC(=O)OC(C)C[N+](C)(C)C (centres undefined) ?
Reply: 1.01

Ask: Which measured normalized growth value corresponds to `O=C(O)C1=C[C@@H](O)[C@@H](O)[C@H](O)C1` ?
Reply: 1.01

Ask: Which measured normalized growth value corresponds to C[C@@H]1CC[C@@]2(OC1)OC1CC3C4CC=C5C[C@@H](O)CC[C@]5(C)C4CC[C@]3(C)C1[C@@H]2C (some centres undefined) ?
Reply: 1

Ask: Which measured normalized growth value corresponds to CC1CC[C@@]2(OC1)O[C@H]1CC3C4CC[C@@H]5CC(=O)CC[C@]5(C)C4CC[C@]3(C)[C@H]1[C@@H]2C (some centres undefined) ?
Reply: 0.985

Ask: Which measured normalized growth value corresponds to CCC1OC(=O)[C@H](C)C(=O)[C@H](C)[C@@H](OC2O[C@H](C)C[C@H](N(C)C)[C@H]2O)[C@](C)(OC)C2(CCCn3cnc(-c4cccnc4)c3)C[C@@H](C)C(=O)[C@H](C)[C@H]3N(C2)C(=O)O[C@]13C (some centres undefined) ?
Reply: 1.01

Ask: Which measured normalized growth value corresponds to C[C@@H]1CC[C@@]2(NC1)O[C@H]1C[C@H]3C4CC=C5C[C@@H](O)CC[C@]5(C)C4CC[C@]3(C)C1[C@@H]2C (some centres undefined) ?
Reply: 0.0845

Ask: Which measured normalized growth value corresponds to C[C@@H]1CC[C@@]2(OC1)O[C@H]1CC3C4CC[C@H]5C[C@@H](O)CC[C@]5(C)C4CC[C@]3(C)[C@H]1[C@@H]2C (some centres undefined) ?
Reply: 0.999

Ask: Which measured normalized growth value corresponds to CCN(Cc1ccncc1)C(=O)C(CO)c1ccccc1 (centres undefined) ?
Reply: 0.994
